assay.system: Bcl-2, P10415
Sequence (P10415 1-217): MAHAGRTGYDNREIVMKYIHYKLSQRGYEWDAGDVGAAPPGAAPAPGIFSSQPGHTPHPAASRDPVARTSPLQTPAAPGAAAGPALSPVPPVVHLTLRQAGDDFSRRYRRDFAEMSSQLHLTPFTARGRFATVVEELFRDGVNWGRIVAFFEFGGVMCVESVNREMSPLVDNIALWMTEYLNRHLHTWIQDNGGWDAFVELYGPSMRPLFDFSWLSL
assay.text: peptide SPOT array, c-Myc-tagged receptor at 1 uM or 100 nM, anti-c-Myc-Cy3
Please provide measured SPOT signal as a fraction of Bim BH3's signal on the same receptor and array for the entries that follow.
The answer should be a number; do not append a unit.

Form: binder = AIKPVSFIRDLKKIARHFRFGNQEDA [USP36] ; SPOT signal as a fraction of Bim BH3's signal on the same receptor and array = 0.19

Item: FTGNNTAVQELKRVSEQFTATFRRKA [TUBB4Q] | SPOT signal as a fraction of Bim BH3's signal on the same receptor and array: 0.19

SPOT signal as a fraction of Bim BH3's signal on the same receptor and array reported for this binder EGTKIVLGKQLIESADEVRRKSLVLK [TAF1] : 0.07

Documented SPOT signal as a fraction of Bim BH3's signal on the same receptor and array of TCLNRGFSRLLDNMAEFFRPTEQDLQ [PEX3] : 0.02

What the record says about DATHDEAVQALKRAGKEVLLEVKYMR [SNTB1] : SPOT signal as a fraction of Bim BH3's signal on the same receptor and array is 0.01

Entry ASEASLFEEALEKYGKDFNDIRQDFL [MTA3] ; SPOT signal as a fraction of Bim BH3's signal on the same receptor and array = 0.01

Reported SPOT signal as a fraction of Bim BH3's signal on the same receptor and array for VDVIDDHERGLIRNGRDFLLALERQG [DEDD] was 0.01

Entry TIHFNQRGTRLASSGDDLRVIVWDWV [DCAF8L1] ; SPOT signal as a fraction of Bim BH3's signal on the same receptor and array = 0.02

Lab note: SATHDEAVQVLKKTGKEVVLEVKYMK [SNTA1] gave SPOT signal as a fraction of Bim BH3's signal on the same receptor and array of 0.02

Reported SPOT signal as a fraction of Bim BH3's signal on the same receptor and array of RDASKILVDALQKFADDMYSLYGGNA [ATP6AP2] : 0.01

SPOT signal as a fraction of Bim BH3's signal on the same receptor and array for ALNAQPSAEELSKIADSVNLPLDVVK [ZEB1] is 0.01

SPOT signal as a fraction of Bim BH3's signal on the same receptor and array in this record for KGKIDVCIVLLQHGADPNIRNTDGKS [TNKS] : 0.02

Lookup result for YTCRGHIPGFLQTTADEFCFYYARKD [HHIP] ; measured SPOT signal as a fraction of Bim BH3's signal on the same receptor and array: 0.02

# SPOT signal as a fraction of Bim BH3's signal on the same receptor and array (binder: FSVDLNASRSLSQVAMDLHEAVSMKL [DCST2] ) is 0.01

In plain terms, FQQLRHRIQDLEQLAKEQDKESEKQL [BNIP1] has a documented SPOT signal as a fraction of Bim BH3's signal on the same receptor and array of 0.02

LRGSGAWGLLLRRVGDDVLVHLLARC [TERT] has a reported SPOT signal as a fraction of Bim BH3's signal on the same receptor and array of 0.03

From: paper PMC4072508
